- measurementNotes: Cytotoxicity against human BEAS-2B cells assessed as reduction in cell viability incubated for 48 hrs by MTS assay
- Type: toxicity, cell-based
Answer each item with its documented IC50 at 48 h.
Number only, in µM; omit the unit.

// IC50 at 48 h lookup, key: CC(C)=CCc1c(O)cc(O)c2c1O[C@]13C(=C[C@H]4C[C@H]1C(C)(C)O[C@@]3(CC=C(C)C)C4=O)C2=O
0.7

Ok, now CC(C)(O)CCc1c(O)cc(O)c2c(=O)c3ccc(O)c(O)c3oc12
20.4

Ok, now CC(C)=CC[C@@]12OC(C)(C)[C@@H]3C[C@H](C=C4C(=O)c5c(O)cc(O)c(CCC(C)(C)O)c5O[C@]431)C2=O
7.7

Ok, now CC(C)=CC[C@@]12OC(C)(C)[C@@H]3C[C@H](C=C4C(=O)c5c(O)cc6c(c5O[C@]431)CCC(C)(C)O6)C2=O
1.1

Ok, now CC1(C)C=Cc2c(cc(O)c3c(=O)c4ccc(O)c(O)c4oc23)O1
21.1

Ok, now CC(C)=CC[C@@]12OC(C)(C)[C@@H]3C[C@H](C=C4C(=O)c5c(O)cc(O)cc5O[C@]431)C2=O
3.2

Values from ChEMBL document CHEMBL5370577
